TESTED_TARGET: Human EGF receptor tyrosine kinase (Homo sapiens)
Construct: Human EGF receptor tyrosine kinase was isolated from A431 epidermoid carcinoma cells; endogenous in cells; host or cells: A431 epidermoid carcinoma cells
Sequence (P00533 25-1210): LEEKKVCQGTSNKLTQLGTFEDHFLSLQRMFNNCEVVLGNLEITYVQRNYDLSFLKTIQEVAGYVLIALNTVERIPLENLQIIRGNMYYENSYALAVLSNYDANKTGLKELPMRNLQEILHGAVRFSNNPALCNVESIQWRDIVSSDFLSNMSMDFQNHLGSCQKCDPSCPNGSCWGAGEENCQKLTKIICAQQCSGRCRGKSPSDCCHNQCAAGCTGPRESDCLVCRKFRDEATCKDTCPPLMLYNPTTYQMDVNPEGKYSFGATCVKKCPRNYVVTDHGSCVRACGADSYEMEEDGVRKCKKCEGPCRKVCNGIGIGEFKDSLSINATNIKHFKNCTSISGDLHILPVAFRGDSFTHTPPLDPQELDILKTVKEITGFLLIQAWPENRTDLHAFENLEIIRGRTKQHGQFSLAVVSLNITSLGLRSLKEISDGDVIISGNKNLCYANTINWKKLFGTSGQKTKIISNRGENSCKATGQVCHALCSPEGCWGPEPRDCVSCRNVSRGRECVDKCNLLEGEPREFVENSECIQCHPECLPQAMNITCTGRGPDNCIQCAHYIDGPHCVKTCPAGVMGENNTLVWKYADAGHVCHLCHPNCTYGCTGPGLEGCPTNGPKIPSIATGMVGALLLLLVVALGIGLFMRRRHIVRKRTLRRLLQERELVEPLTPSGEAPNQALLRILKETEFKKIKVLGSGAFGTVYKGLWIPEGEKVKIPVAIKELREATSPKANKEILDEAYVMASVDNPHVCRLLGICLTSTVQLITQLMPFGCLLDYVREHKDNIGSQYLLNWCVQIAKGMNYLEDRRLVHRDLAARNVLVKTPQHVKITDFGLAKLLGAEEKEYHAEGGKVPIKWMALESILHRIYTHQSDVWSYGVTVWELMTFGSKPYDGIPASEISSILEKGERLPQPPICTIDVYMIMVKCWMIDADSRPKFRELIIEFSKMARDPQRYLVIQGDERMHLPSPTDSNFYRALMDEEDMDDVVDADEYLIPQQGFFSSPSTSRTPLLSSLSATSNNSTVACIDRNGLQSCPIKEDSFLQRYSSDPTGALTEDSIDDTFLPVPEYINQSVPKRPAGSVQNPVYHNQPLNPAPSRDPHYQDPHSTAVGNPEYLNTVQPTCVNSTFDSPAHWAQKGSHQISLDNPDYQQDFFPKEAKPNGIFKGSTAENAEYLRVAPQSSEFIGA
ASSAY_EXPLANATION: EGF receptor tyrosine kinase enzyme assay (substrate peptide phosphorylation)
Assay type: biochemical
CONDITION_PARAMETERS: read-out: EGF-FL % Inhibition at 50 µM
Task for the reader: assign each of the following molecules its reported inhibition at 50 µM.
Put down the number, then write its unit next to it.

Ask: Entry under review: Cn1c(=O)c(-c2c(Cl)cccc2Cl)cc2cnc(NCc3ccccn3)nc21 [Example 49] . Reported inhibition at 50 µM?
Reply: 61%

Ask: Entry under review: Cc1ccccc1-c1cc2cnc(N)nc2n(C)c1=O [Example 14] . Reported inhibition at 50 µM?
Reply: 65%

Ask: Entry under review: CN(C)c1ncc2cc(-c3c(Cl)cccc3Cl)c(=O)n(C)c2n1 [Example 41] . Reported inhibition at 50 µM?
Reply: 52%

Ask: Entry under review: COc1ccc(Cn2c(=O)c(-c3c(Cl)cccc3Cl)cc3cnc(N)nc32)cc1 [Example 112] . Reported inhibition at 50 µM?
Reply: 19%

Ask: Entry under review: CC(C)Nc1ncc2cc(-c3c(Cl)cccc3Cl)c(=O)n(C)c2n1 [Example 44] . Reported inhibition at 50 µM?
Reply: 64%

Ask: Entry under review: CCNc1ncc2cc(-c3c(Cl)cccc3Cl)c(=O)n(C)c2n1 [Example 42] . Reported inhibition at 50 µM?
Reply: 82%
